Below, each entry is listed alongside its reported yeast fitness.
B1: tRNA (parent)
chain: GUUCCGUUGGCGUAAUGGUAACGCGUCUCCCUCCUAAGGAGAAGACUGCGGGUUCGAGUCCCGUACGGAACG

# Variants of: B1
# method-description: yeast fitness relative to wild type (ratio to wild type); higher = fitter; tRNA-Arg(CCU), competitive growth, 37 C, YPD
Variants at the floor of the assay were thinned out.
Could you respond with only the numeric value?

Recorded results for 8 variants are shown here.
>  <seq-text>
GUUCCGUUGGCGUAAUGGUUACGCGUCUCCCUCCUAAGGAGAAGACUACGGGUUCGAGUCCCGUACGGAACG [A20U G48A]

>  <numeric-result>
0.922

$$$$
>  <seq-text>
GAUCCGUUGGCGUAAUGGUAACGCGUCUCCGUCCUAAGGAGAAGACUGCGGGUUCGAGUCCCGUGCGGAACG [U2A C31G A65G]

>  <numeric-result>
0.642

$$$$
>  <seq-text>
GUUCCGUUGGCAUAAUGGUCACGCGUCUCCCUCCUAAGGAGAAGACUGCGGGUUCGAGUCCCGUACGGAACG [G12A A20C]

>  <numeric-result>
0.875

$$$$
>  <seq-text>
GUUCCGUUGGCGUAAUGAUUAUGCGUCACCCUUCUAAGGAGAACACUGCGGGUUCGAGUCCCGUACGGAACG [G18A A20U C22U U28A C33U G44C]

>  <numeric-result>
0.524

$$$$
>  <seq-text>
GUUCCGUUGCCGUAAUGGUAACGCGUCUCCCUCCUAAGGAGAAGACUGCGGGUUCGAGUCCAGUACGGAACG [G10C C62A]

>  <numeric-result>
0.515

$$$$
>  <seq-text>
GUUCCGUUGGCGUAAUGGUAACGCGUCUCCCUCCUAAGGAGAUGACUGCGGCUUCGAGUCCCGUACGGAACG [A43U G52C]

>  <numeric-result>
0.6

$$$$
>  <seq-text>
GUUCCGUUGGGGUAAUGGUAACGCGUUUCCCUCCUUUGGACACGACUGGGGGUUCGAGUCCGGUACGGAACG [C11G C27U A36U A37U G41C A43C C49G C62G]

>  <numeric-result>
0.604

$$$$
>  <seq-text>
GUUCGGUUGGCGUAAUGGUAACGCGUCUCCCUCCUAUGGAGAAGAUUGCGGGUUCGAGUCCCGUACGGAACG [C5G A37U C46U]

>  <numeric-result>
0.536

$$$$

# variant GUUCCGUUGGCGUAAUGGUAAUGCAUCUCCCUCCUAAGGAGAAGACUGCGGGUCCGAGUCCCGUUCGGAACG [C22U G25A U54C A65U] ; its yeast fitness = 0.555

# variant GUUCCGUUGACGUAAUGGUAACGCGUCUCCCUCCUAAGGAGAAGACUGCGGGUUCGAGUCCCGUGCGGAACG [G10A A65G] ; its yeast fitness = 0.627

# variant GUUCCGUUGGCGUAAUGGUAACGCGUCUCCCUCCUAAGGAGAAGACUGCAGGUUCGAGUCCCGUACGGCACG [G50A A69C] ; its yeast fitness = 0.74

# variant GUUCCGUUGGCGUAAUGGUAACGCGUCUCGCUCCUAAGGAGAAGACUGCGGGUUCGAGUCCCGUACAGAACG [C30G G67A] ; its yeast fitness = 0.619

# variant GUUCCGUUGGCGUAAUGGUAACGCCUCUUCCUCCUAAGGAGAAGACUGCGGGUUCGAGUCCCGUACGGAACG [G25C C29U] ; its yeast fitness = 0.688

# variant GUUCCGUUGGCGUAAUGGUAACGAGUCUCCCUCCUAAGGAGAAGACUGCGGGUUCGAGUCCCGUACAGAACG [C24A G67A] ; its yeast fitness = 0.709
